In this section we review reported pIC50 values for a set of compounds.
test system: HepG2; test: Antiproliferative activity against human HepG2 cells after 72 hrs by SRB assay; assay type: functional, cell-based; conditions: Homo sapiens, HepG2, 72 h; read-out: IC50
The read-out pIC50 is expressed as -log10 of concentration in moles per litre.

{"SMI": "OC[C@H]1O[C@@H](n2cnc3c(NCCC4=CCCCC4)ncnc32)[C@H](O)[C@@H]1O", "pIC50": 6.00}
{"SMI": "CC(C)c1ccc(Nc2ncnc3c2ncn3[C@@H]2O[C@H](CO)[C@@H](O)[C@H]2O)cc1", "pIC50": 4.40}
{"SMI": "Nc1nc(N2CCN(C(c3ccccc3)c3ccccc3)CC2)c2ncn([C@@H]3O[C@H](CO)[C@@H](O)[C@H]3O)c2n1", "pIC50": 4.70}
{"SMI": "OC[C@H]1O[C@@H](n2cnc3c(N4CCN(c5ccc(C(F)(F)F)cc5)CC4)nc(Cl)nc32)[C@H](O)[C@@H]1O", "pIC50": 5.52}

// moving on: another record for pIC50
Exam item: // query pIC50 value for entry CN(C)c1ccc(Nc2ncnc3c2ncn3[C@@H]2O[C@H](CO)[C@@H](O)[C@H]2O)cc1
Marked response: 4.52

###

In this section we review reported IC50 values for a set of compounds.
tested on: Huh-7; experiment: Antiproliferative activity against human HuH7 cells after 72 hrs by SRB assay; assay type: functional, cell-based; conditions: Homo sapiens, Huh-7, 72 h; read-out: IC50
Note: a bare number is incomplete; add the unit.

Some compounds with known IC50 results, for comparison:
{"SMI": "Nc1nc(N2CCN(c3ccccc3)CC2)c2ncn([C@@H]3O[C@H](CO)[C@@H](O)[C@H]3O)c2n1", "VALUE_REPORTED": "50 µM"}
{"SMI": "CC(C)c1ccc(Nc2ncnc3c2ncn3[C@@H]2O[C@H](CO)[C@@H](O)[C@H]2O)cc1", "VALUE_REPORTED": "60 µM"}
{"SMI": "Nc1nc(N2CCN(C(c3ccccc3)c3ccccc3)CC2)c2ncn([C@@H]3O[C@H](CO)[C@@H](O)[C@H]3O)c2n1", "VALUE_REPORTED": "10 µM"}

Exam item: // query IC50 value for entry Nc1nc(F)nc2c1ncn2[C@@H]1O[C@H](CO)[C@@H](O)[C@@H]1O
Marked response: 30 µM

###

tested on: Huh-7; experiment: Antiproliferative activity against human HuH7 cells after 72 hrs by SRB assay; assay type: functional, cell-based; settings: Homo sapiens, Huh-7, 72 h; read-out: IC50
RECORDED_METRIC: IC50

Some compounds with known IC50 results, for comparison:
{"SMI": "Nc1nc(Cl)nc2c1ncn2[C@H]1C[C@H](O)[C@@H](CO)O1", "RECORDED_METRIC": "IC50", "VALUE_REPORTED": "400 to 900 nM"}
{"SMI": "Nc1nc(N2CCN(c3ccc(F)cc3)CC2)c2ncn([C@@H]3O[C@H](CO)[C@@H](O)[C@H]3O)c2n1", "RECORDED_METRIC": "IC50", "VALUE_REPORTED": "> 100000 nM"}
{"SMI": "OC[C@H]1O[C@@H](n2cnc3c(N4CCN(c5ccc(C(F)(F)F)cc5)CC4)nc(Cl)nc32)[C@H](O)[C@@H]1O", "RECORDED_METRIC": "IC50", "VALUE_REPORTED": "1000 to 2000 nM"}

// moving on: another record for IC50
Exam item: Request - read-out IC50 | tested on Huh-7 | compound OC[C@H]1O[C@@H](n2cnc3c(NCCC4=CCCCC4)ncnc32)[C@H](O)[C@@H]1O
Marked response: > 100000 nM

Origin of measurements: ChEMBL document CHEMBL4184126
